Kindly state Average daily weight gain for each of the entries shown.
test system: Cherry Valley ducks; test: Effects of the salts of isopropoxy-phenylguanidine in a feed for ducks; format: in vivo; conditions: ducks aged 1 day, 50 ppm in feed, 28 days
Answers are plain numbers, in g.

Solved entries:
| compound | target under test | outcome measure | experimental value |
| --- | --- | --- | --- |
| CC(C)Oc1ccc(C=NNC(=N)NN=Cc2ccc(OC(C)C)cc2)cc1.Cl [isopropoxy-phenylguanidine hydrochloride, reference compound] | Cherry Valley ducks | Average daily weight gain | 65.3 |
| CC(C)Oc1ccc(C=NNC(=N)NN=Cc2ccc(OC(C)C)cc2)cc1.CC(O)C(=O)O [isopropoxy-phenylguanidine lactate] | Cherry Valley ducks | Average daily weight gain | 67.8 |

Provide each entry's Average daily weight gain from the list below.
1. CC(C)Oc1ccc(C=NNC(=N)NN=Cc2ccc(OC(C)C)cc2)cc1.CS(=O)(=O)O
2. CC(C)Oc1ccc(C=NNC(=N)NN=Cc2ccc(OC(C)C)cc2)cc1.O=P(O)(O)O [isopropoxy-phenylguanidine phosphate]
3. CC(C)Oc1ccc(C=NNC(=N)NN=Cc2ccc(OC(C)C)cc2)cc1.O=S(=O)(O)CCO

Result:
1. 68.4
2. 61.2
3. 67.9
